This section presents binders with their documented Aequorin EC50 values.
- Target Under Test: T1, human GALR2 (Galanin Receptor 2) (human, UniProt O43603 1-387)
- T1 sequence: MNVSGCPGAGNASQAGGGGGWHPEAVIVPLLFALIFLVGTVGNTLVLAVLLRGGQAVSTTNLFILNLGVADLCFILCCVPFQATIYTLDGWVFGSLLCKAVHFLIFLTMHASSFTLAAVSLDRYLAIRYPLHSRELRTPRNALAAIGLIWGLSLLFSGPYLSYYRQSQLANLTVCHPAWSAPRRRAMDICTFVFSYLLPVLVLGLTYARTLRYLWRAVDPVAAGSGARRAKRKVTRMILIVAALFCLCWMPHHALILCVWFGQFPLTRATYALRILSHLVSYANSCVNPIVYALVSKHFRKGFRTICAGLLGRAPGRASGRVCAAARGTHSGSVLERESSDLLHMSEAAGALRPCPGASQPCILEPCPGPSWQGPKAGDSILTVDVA
- Procedure Text: cell-based or functional assay
# unit: nM | format: bare number

{"Binder": "NWTPQAMLYLKGAQGRRFISDQS [human pro Neuropeptide Q (36-58) (SEQ ID NO: 16)]", "Value Unit": "nM", "Aequorin EC50": 17.6}
{"Binder": "NWTPQAMLYLKGAQG [human Neuropeptide Q-Glycine (SEQ ID NO: 14)]", "Value Unit": "nM", "Aequorin EC50": 5.7}

Moving on to another binder below.
Consider the binder NWTPQAMLYLKGAQGH [rat Neuropeptide Q (SEQ ID NO: 15)] . State its measured Aequorin EC50.
5.06
